Reference source: patent US20210032253A1

I'd appreciate it if you could supply IC50 values for the items below.
target_system: adenosine A1 receptor (A1R) (Homo sapiens)
Construct: expressed in transfected cells; host or cells: CHO-K1
Sequence (P30542 1-326): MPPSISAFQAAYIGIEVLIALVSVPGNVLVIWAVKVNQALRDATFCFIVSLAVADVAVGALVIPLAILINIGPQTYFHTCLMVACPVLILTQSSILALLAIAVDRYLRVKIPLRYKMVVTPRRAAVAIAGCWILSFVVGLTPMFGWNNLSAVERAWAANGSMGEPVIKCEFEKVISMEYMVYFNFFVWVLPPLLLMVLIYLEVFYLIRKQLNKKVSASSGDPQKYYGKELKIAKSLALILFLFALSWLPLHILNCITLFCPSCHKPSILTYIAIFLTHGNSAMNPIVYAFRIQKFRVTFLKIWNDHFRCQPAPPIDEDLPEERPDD
assay_info: Inhibition of adenosine A1 receptor cAMP signaling pathway in CHO-K1/A1R cells (HTRF cAMP dynamic 2 kit)
Type: cell-based
recorded_conditions: Table 2; CHO-K1/A1R cells, cAMP, 10 μM forskolin, 10 nM CPA
Just the number in nM, nothing appended.

Look up IC50 of Cc1ccc(-c2nc(N)nc3c(Cc4cccc(CO[C@H]5CCOC5)c4)cnn23)o1 and report it.
2020

Give reported IC50 value for Cc1ccc(-c2nc(N)nc3c(Nc4cccc(CO[C@H]5CCOC5)c4)cnn23)o1
2040

Tell me its IC50 given Cc1ccc(-c2nc(N)nc3c(Cc4cccc(CO[C@H]5CCOC5)n4)cnn23)o1 as the entry.
1120

Give IC50 for Cc1ccc(-c2nc(N)nc3c(Cc4cccc(COC5CCCC5)n4)cnn23)o1
303

# return recorded IC50 for input Cc1ccc(-c2nc(N)nc3c(Nc4cccc(CO[C@@H]5CCOC5)n4)cnn23)o1
609

Give reported IC50 value for Cc1ccc(-c2nc(N)nc3c(Cc4cccc(CO[C@H]5CCN(C)C5)n4)cnn23)o1
165

Supply recorded IC50 for Cc1ccc(-c2nc(N)nc3c(Nc4cccc(CN5CCN(C)CC5)n4)cnn23)o1 here.
3690

Read off the recorded IC50 for Cc1ccc(-c2nc(N)nc3c(Nc4cccc(CN5CC6COCC6C5)n4)cnn23)o1 (centres unmarked)
684

Give IC50 for Cc1ccc(-c2nc(N)nc3c(Cc4cccc(CN5CC6COCC6C5)n4)cnn23)o1 (centres unmarked)
483

Answer with the recorded IC50 for the molecule listed here: Cc1ccc(-c2nc(N)nc3c(Cc4cccc(CN5CCOCC5)n4)cnn23)o1
835

Check the records and state IC50 for Nc1nc(-c2ccco2)n2ncc(Cc3ccccc3)c2n1
565

Look up and report measured IC50 for this entry: Cc1ccc(-c2nc(N)nc3c(Oc4cccc(CO[C@H]5CCOC5)n4)cnn23)o1
2860

Hello, please tell me recorded IC50 for this one: Cc1ccc(-c2nc(N)nc3c(Nc4cccc(CO[C@H]5CCOC5)n4)cnn23)o1
2540

Name the recorded IC50 of the item Cc1ccc(-c2nc(N)nc3c(Cc4cccc(CN5CC6(COC6)C5)n4)cnn23)o1 in your answer.
340

Provide only the value of recorded IC50 for Cc1ccc(-c2nc(N)nc3c(Nc4cccc(CN5CC6(COC6)C5)n4)cnn23)o1
287

Let me know recorded IC50 for Cc1ccc(-c2nc(N)nc3c(Cc4cccc(COCCF)n4)cnn23)o1 , thanks.
293

For Cc1ccc(-c2nc(N)nc3c(Cc4cccc(CN5CCN(C)CC5)n4)cnn23)o1 , write its IC50.
943
